Please provide measured pest or weed control at 121.5 g/ha for the entries that follow.
Test system: Zymoseptoria tritici
Assay: Leaf blotch of wheat (SEPTTR), disease control on wheat seedlings
Assay type: in vivo
Conditions: 24 h, low volume application at 121.5 g/H, 1 Day Protectant, wheat leaf blotch, read-out: SEPTTR 1DP disease control, LV activity

**Query** Given the entry CCC(C)[C@@H](c1ccccc1C)[C@H](C)OC(=O)[C@H](C)NC(=O)c1nccc(OC)c1OC(C)=O (stereo partly shown) , report its measured pest or weed control at 121.5 g/ha.
**Result** > 80%

**Query** Given the entry COc1ccnc(C(=O)N[C@@H](C)C(=O)O[C@@H](C)[C@H](c2ccc3c(c2)OCO3)C(C)C)c1OC(C)=O , report its measured pest or weed control at 121.5 g/ha.
**Result** < 80%

**Query** Given the entry CCC(C)[C@@H](c1ccccc1C)[C@H](C)OC(=O)[C@H](C)NC(=O)c1nccc(OC)c1OC(=O)C(C)C (stereo partly shown) , report its measured pest or weed control at 121.5 g/ha.
**Result** < 80%

**Query** Given the entry COc1ccnc(C(=O)N[C@@H](C)C(=O)O[C@@H](C)[C@H](c2ccccc2C)C(C)C)c1OC(C)=O , report its measured pest or weed control at 121.5 g/ha.
**Result** < 80%

**Query** Given the entry COc1ccnc(C(=O)N[C@@H](C)C(=O)O[C@@H](C)[C@H](c2ccc(Cl)cc2F)C(C)C)c1OC(C)=O , report its measured pest or weed control at 121.5 g/ha.
**Result** > 80%

**Query** Given the entry COc1ccnc(C(=O)N[C@@H](C)C(=O)O[C@@H](C)[C@H](c2ccc(OC(C)C)cc2)C(C)C)c1OCOC(C)=O , report its measured pest or weed control at 121.5 g/ha.
**Result** < 80%

**Query** Given the entry CCC(CC)[C@@H](c1ccccc1C)[C@H](C)OC(=O)[C@H](C)NC(=O)c1nccc(OC)c1OC(C)=O , report its measured pest or weed control at 121.5 g/ha.
**Result** > 80%
